- study-target: Glycogen synthase kinase-3 alpha (Homo sapiens, UniProt P49840)
- Sequence (P49840 whole entry): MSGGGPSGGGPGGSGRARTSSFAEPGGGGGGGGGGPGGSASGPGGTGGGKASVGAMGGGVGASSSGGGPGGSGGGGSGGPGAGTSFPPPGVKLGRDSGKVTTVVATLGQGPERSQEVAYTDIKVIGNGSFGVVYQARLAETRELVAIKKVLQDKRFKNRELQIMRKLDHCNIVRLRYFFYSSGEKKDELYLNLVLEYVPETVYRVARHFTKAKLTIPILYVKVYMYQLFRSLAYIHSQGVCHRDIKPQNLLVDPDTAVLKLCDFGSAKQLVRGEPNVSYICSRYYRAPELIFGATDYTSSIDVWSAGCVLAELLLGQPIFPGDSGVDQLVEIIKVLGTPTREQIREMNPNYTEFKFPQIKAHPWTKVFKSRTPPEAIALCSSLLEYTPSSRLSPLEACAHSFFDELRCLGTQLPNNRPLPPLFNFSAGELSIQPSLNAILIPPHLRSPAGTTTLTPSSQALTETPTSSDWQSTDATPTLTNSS
- assay-details: TR-FRET Assay
// reported IC50 for each item listed
measurement-type: IC50

>>> df
                                    molecule       result
 0  CC1(C)CC(=O)C2=C(C1)NC1=C(CN=N1)C21CCN(S(=O)(=O)c2cnccc2C(F)(F)F)CC1     < 0.1 µM
 1  CCC1(c2cccc(-c3cc(C)ncc3F)c2)C2=CN=NC2NC2=C1C(=O)CC(C)(C)C2 (stereo not drawn)     < 0.1 µM
 2  CCC1(c2cccc(-c3ccnc4c3CCC4)c2)C2=CN=NC2NC2=C1C(=O)NC(C)(C)C2 (stereo not drawn)     < 0.1 µM
 3  CC1(C)CC(=O)C2=C(C1)NC1=C(CN=N1)C2(c1ccccc1)c1ccccc1    1 to 5 µM
 4  CC[C@@]1(c2cccc(-c3ccnc(C)c3)c2)C2=CN=NC2NC2=C1C(=O)N[C@@]1(CCOC1)C2 (stereo partly drawn)     < 0.1 µM
 5  CC[C@]1(c2cccc(-c3cn(C)nc3C)c2)C2=C(CC(C)(C)NC2=O)NC2N=NC(Cl)=C21 (stereo partly drawn)    1 to 5 µM
 6  CC1(C)CC(=O)C2=C(C1)NC1=C(CN=N1)[C@@]21COC2(CN(C(=O)c3ccccc3)C2)C1     < 0.1 µM
 7  CCC1(c2cccc(-c3ccnc(C(C)O)c3)c2)C2=CN=NC2NC2=C1C(=O)CC(C)(C)C2 (stereo not drawn)     < 0.1 µM
 8  CC[C@@H]1C[C@@]2(CO1)C1=C(N=NC1)NC1=C2C(=O)CC(C)(C)C1  0.1 to 1 µM
 9  CC[C@@]1(c2cccc(C(F)(F)F)c2)C2=CN=NC2NC2=C1C(=O)N[C@H](C)C2 (stereo partly drawn)     < 0.1 µM
10  CC[C@@]1(c2cccc(C(F)(F)F)c2)C2=C(N=NC2)NC2=C1C(=O)N(Cc1ccccc1)[C@H]2C       > 5 µM
11  CC(=O)N1C[C@@]2(C[C@@]3(CO2)C2=C(N=NC2)NC2=C3C(=O)CC(C)(C)C2)[C@@H]1C     < 0.1 µM
12  CC[C@]1(c2cccc(-c3cnn(C)c3F)c2)C2=CN=NC2NC2=C1C(=O)NC(C)(C)C2 (stereo partly drawn)    1 to 5 µM
